Taken from patent US20200325139A1.

Tested on: Ldtfm
Assay: Inhibition of L,D-transpeptidase by DBOs, residual nitrocefin hydrolysis
Assay type: biochemical, E. faecium
Conditions: Inhibitor/Ldtfm molar ratio 1; enzyme 10 μM; 260 min at 37° C.
quantity.measured: Residual activity of Ldtfm following pre-incubation (%)
Your answer is read as %, so omit the unit and give the number.

Query: Query (compound): O=C1N2C[C@@H](CC[C@H]2Cn2cc(CN3CCOCC3)nn2)N1OS(=O)(=O)[O-].[Na+] [Compound 1a.i.11] ; field requested: Residual activity of Ldtfm following pre-incubation
Reply: 92.0

Query: Then this compound: NC(=O)[C@@H]1CC[C@@H]2CN1C(=O)N2OS(=O)(=O)O [Avibactam, reference compound]
Reply: 66.3

Query: Then this compound: O=C1N2C[C@@H](CC[C@H]2Cn2cc(-c3cccnc3)nn2)N1OS(=O)(=O)O [Compound 1a.i]
Reply: 88.6

Query: Then this compound: C[Si](C)(C)c1cn(C[C@@H]2CC[C@@H]3CN2C(=O)N3OS(=O)(=O)O)nn1 [Compound 2a.i]
Reply: 88.8
